Tested on: SNB-78 CNS
procedure.summary: NCI tumour cell line growth inhibition, 48 h
property.measured: TGI

# input Fill blank: measured TGI of the compound Cn1cnnc1Sc1c([N+](=O)[O-])ncn1C is ____.
# output > 100 µM

***
# input Fill blank: measured TGI of the compound C[Si](C)(C)/C(I)=C/CO is ____.
# output 95.3 µM

# input And for CC(C)=CC1CC(=[N+]=[N-])C(=O)C1(C)C (configuration not stated) ?
# output > 100 µM

# input And for CC(=O)N1CCC(=O)/C(=C/c2ccccc2)C1 ?
# output > 100 µM

----------
System: SN12C renal
procedure.summary: NCI tumour cell line growth inhibition, 48 h
property.measured: TGI

Example cases with answers are listed next.
# input Fill blank: measured TGI of the compound CC1(Br)Cc2ccccc2C1=O (centres undefined) is ____.
# output 14.8 µM

# input And for N#Cc1c(-c2ccc(Cl)cc2)c(C#N)c(=O)n(NS(=O)(=O)c2ccccc2)c1O ?
# output > 100 µM

# input And for CCC(=O)O[C@H]1CC[C@H]2[C@@H]3CCC4=C/C(=N/OC(=O)c5cccc6cc7ccccc7nc56)CC[C@]4(C)[C@H]3CC[C@]12C ?
# output > 100 µM

# input And for O=C(Nc1cc(C(F)(F)F)ccc1Cl)c1cccc(NC2=C(Cl)C(=O)N(Cc3ccccc3)C2=O)c1 ?
# output > 100 µM

***
# input Fill blank: measured TGI of the compound CN(C)CCNC(=O)c1cccc2ccc(-c3ccc(F)cc3)nc12 is ____.
# output 25.2 µM

# input And for CCN(CC)CCSc1c2ccccc2nc2c(OC)ccc(OC)c12 ?
# output > 39.3 µM

# input And for Nc1ccccc1N=Cc1cc2cc([N+](=O)[O-])ccc2s1 ?
# output > 100 µM

# input And for CC(C)(C)OC/C=C(/CO)[C@@H]1C=C[C@H](O)C1 ?
# output > 100 µM

# input And for CC1=C(/C=C/C(C)=C/C=C/C(C)=C/C(=O)OC2CC(n3cc(F)c(=O)[nH]c3=O)OC2CO)C(C)(C)CCC1 (centres undefined) ?
# output 32 µM

----------
Tested on: UO-31 renal
procedure.summary: NCI tumour cell line growth inhibition, 48 h
property.measured: TGI

Example cases with answers are listed next.
# input Fill blank: measured TGI of the compound COc1ccc(/C(=C\C=C(C#N)C#N)Sc2nc3ccccc3s2)cc1 is ____.
# output > 50 µM

# input And for S=c1[nH]c2c(Cl)c(Cl)c(Cl)c(Cl)c2[nH]1 ?
# output 43.2 µM

# input And for CC(=O)OCC1OC(n2c(C)cc(C)c(C#N)c2=S)C(OC(C)=O)C(OC(C)=O)C1OC(C)=O (stereo not given) ?
# output > 100 µM

# input And for c1ccc2c(c1)SCCC2NC1=NCCO1 (stereo not given) ?
# output > 100 µM

# input And for CN(C)/N=C1/CCC(C(F)(F)F)(C(F)(F)F)O1 ?
# output 98.2 µM

***
# input Fill blank: measured TGI of the compound C[C@@]12CCC[C@@](C)(C(=O)O)C1CC[C@]13CC(=O)[C@](CO)(C1)[C@@H](O)CC32 (stereo not given in full) is ____.
# output > 100 µM

# input And for O=C1C=C(NCCOCCO)C(=O)c2c(O)ccc(O)c21 ?
# output > 100 µM

# input And for CC1CN=C(N(C(=O)Nc2ccc(Cl)c(Cl)c2)c2ccccc2)S1 (stereo not given) ?
# output > 100 µM

# input And for CC(=O)N(C)CCc1c[nH]c2ccccc12 ?
# output > 100 µM

# input And for C[C@H](Nc1cc(Cl)nc2c1cnn2[C@@H]1O[C@H](COP(=O)(O)CP(=O)(O)O)[C@@H](O)[C@H]1O)c1ccccc1F ?
# output > 100 µM

# input And for COc1ccc(C(C#N)NNC(=O)Cc2ccccc2)cc1OC (stereo not given) ?
# output > 100 µM

# input And for CCc1nc(N)nc(N)c1-c1ccc([N+](C)(C)C)cc1 ?
# output > 100 µM

# input And for FC(F)(F)c1ccc2c(c1)nc(-c1ccc(Cl)cc1)n2CC1CCCN2CCCCC12 (stereo not given) ?
# output 22.9 µM

# input And for CCOC(=O)NNC(=O)NCCCCNC(=O)NNC(=O)OCC ?
# output > 100 µM

----------
Tested on: A549 NSCLC
procedure.summary: NCI tumour cell line growth inhibition, 48 h
property.measured: TGI (µM)
Write it as a number; the unit µM goes unstated.

# input Fill blank: measured TGI of the compound CCOC(=O)c1c2c(n(Cc3ccccc3)c1C)C(=O)C(=O)c1ccccc1-2 is ____.
# output 1.35

Next compound, TGI to be filled in.
# input Fill blank: measured TGI of the compound COc1ccc2c(c1)CCCN2CCCCCCCCCCN(CCC(C)C)CCC(C)C is ____.
# output 26.2

----------
Recorded GI50, one value per entry.
Test system: A498 renal
procedure.summary: NCI tumour cell line growth inhibition, 48 h

Example cases with answers are listed next.
# input Fill blank: measured GI50 of the molecule O=[P@@]1(c2ccccc2)O[C@H](COCc2ccccc2)[C@@H](OCc2ccccc2)[C@H](OCc2ccccc2)[C@H]1NCc1ccccc1 is ____.
# output 2.39 µM

# input And for O=C1c2cccc3cccc(c23)C(=O)N1CCCCCN1CCN(CCCCCOc2ccc(-c3nc4ccc(N5CCOCC5)cc4[nH]3)cc2)CC1 ?
# output > 74.9 µM

# input And for CN(C)C(=S)Sc1ccc([N+](=O)[O-])cc1[N+](=O)[O-] ?
# output 9.47 µM

Next molecule, GI50 to be filled in.
# input Fill blank: measured GI50 of the molecule Cn1cc(-c2csc(-c3c[nH]c4ccc(Br)cc34)n2)c2cnccc21 is ____.
# output 12.6 µM

----------
Tested on: K-562 leukemia
procedure.summary: NCI tumour cell line growth inhibition, 48 h
property.measured: GI50

Example cases with answers are listed next.
# input Fill blank: measured GI50 of the compound C[C@@]12CCC[C@@](C)(C(=O)O)C1CC[C@]13CC(=O)[C@](CO)(C1)[C@@H](O)CC32 (some centres undefined) is ____.
# output > 100000 nM

# input And for COC(=O)c1ccc(-c2c(C#N)[n+](=O)c3cc(Cl)c(Cl)cc3n2[O-])cc1 ?
# output 5540 nM

# input And for O=C(Nc1ccc(Cl)c(C(F)(F)F)c1)c1ccc(NC2=C(Cl)C(=O)N(Cc3ccccc3)C2=O)cc1 ?
# output 3490 nM

# input And for O=C1c2cc3c(cc2-c2c1c1cc(Cl)c(Cl)cc1c(=O)n2C[C@H](O)CO)OCO3 ?
# output < 10 nM

# input And for Cn1c(Nc2ccc(C(F)(F)F)cc2)nc2cc(Oc3ccnc(-c4ncc(C(F)(F)F)[nH]4)c3)ccc21 ?
# output 1760 nM

# input And for CC1CCN(C(=O)OCc2nc3nc(Cl)nc(N4CCOCC4)c3[nH]2)CC1 ?
# output 434 nM

***
# input Fill blank: measured GI50 of the compound CSc1ccccc1C#C/C=C\C#Cc1ccccc1N is ____.
# output 5080 nM

# input And for Cc1cc(N(CCCNc2ccnc3cc(Cl)ccc23)Cc2ccc3c(c2)OCO3)nc(N2CCOCC2)n1 ?
# output 328 nM

# input And for NCCCn1c2c(c3ccc([N+](=O)[O-])cc3c1=O)C(=O)c1ccccc1-2 ?
# output 33.5 nM

----------
Test system: DU-145 prostate
procedure.summary: NCI tumour cell line growth inhibition, 48 h
Recorded TGI, one value per entry.

Example cases with answers are listed next.
# input Fill blank: measured TGI of the molecule NCCc1cc(O)c(O)cc1O is ____.
# output 32.4 µM

# input And for CC(=O)NNc1nc(-c2ccc([N+](=O)[O-])cc2)c(C#N)c(=O)n1C ?
# output > 100 µM

# input And for COc1cccc2nc3c(C(=O)NCCN(C)C)cccc3cc12 ?
# output 14.4 µM

# input And for Cc1ncc([N+](=O)[O-])n1CCNCCCCn1ccnc1[N+](=O)[O-] ?
# output > 100 µM

# input And for CCOC(=O)c1c(-c2ccc(OC)cc2)c(C#N)c2c(C#N)c(N)nn2c1N ?
# output > 100 µM

# input And for C[C@H](Nc1cc(Cl)nc2c1cnn2[C@@H]1O[C@H](COP(=O)(O)CP(=O)(O)O)[C@@H](O)[C@H]1O)c1ccccc1F ?
# output > 100 µM

# input And for CC(=O)OCC1OC(n2c(C)cc(C)c(C#N)c2=S)C(OC(C)=O)C(OC(C)=O)C1OC(C)=O (stereo not given) ?
# output > 100 µM

# input And for Cn1c(=O)c(Oc2ccc(F)cc2)cc2cnc(NC3CCOCC3)nc21 ?
# output > 25 µM

# input And for Cc1cc(/N=C/c2ccc(F)cc2)n(-c2ccccc2)n1 ?
# output > 100 µM

Next molecule, TGI to be filled in.
# input Fill blank: measured TGI of the molecule CCOC(=O)c1nc2cc(F)c(N3CCOCC3)cc2[nH]c1=O is ____.
# output > 100 µM

// data source = PubChem BioAssay (NCI)
